Data origin: patent US20240124597A1

target: T1, human-CD40-monomer protein (human, UniProt P25942 21-193, limits assumed); assay: SPR, Ab captured on protein A, hCD40 monomer 500 and 50 nM, 1:1 fit; supernatant
T1 construct: Soluble monomer generated in house, used as SPR analyte; also called hCD40; hCD40-monomer
T1 sequence (P25942 21-193 limits assumed): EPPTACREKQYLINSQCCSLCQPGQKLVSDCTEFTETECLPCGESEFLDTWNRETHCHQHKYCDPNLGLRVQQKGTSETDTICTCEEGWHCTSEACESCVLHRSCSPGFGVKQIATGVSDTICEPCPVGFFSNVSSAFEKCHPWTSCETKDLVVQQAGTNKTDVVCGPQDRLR
Classify by measured koff: 1 (yes) if it is equal to or exceeds 0.002 s⁻¹, 0 (no) if it is smaller.

binder	cat
Y12XX-hz29 (antibody, human IgG1, kappa, V domains shown, Humanized, IgG1-P238K; supernatant sample) VH: QVQLVQSGAEVKKPGSSVKVSCKASGYAFTSYWMHWVRQAPGQGLEWMGFINPTTGYSEYNQKFKDRVTITADKSTSTAYMELSSLRSEDTAVYYCARWGLPPFAYWGQGTLVTVSS VL: EIVMTQSPATLSVSPGERATLSCKASQDVSTAVAWYQQKPGQAPRLLIYSASYRYTGIPARFSGSGSGTEFTLTISSLQSEDFAVYYCQQHYSTPWTFGGGTKVEIKR	0 (no)
Y12XX-hz37 (antibody, human IgG1, kappa, V domains shown, Humanized, IgG1-P238K; supernatant sample) VH: QVQLVQSGAEVKKPGSSVKVSCKASGYAFTSYWMHWVRQAPGQGLEWMGQINPSNGRSQYNEKFKTRVTITADKSTSTAYMELSSLRSEDTAVYYCARWGLQPFAYWGQGTLVTVSS VL: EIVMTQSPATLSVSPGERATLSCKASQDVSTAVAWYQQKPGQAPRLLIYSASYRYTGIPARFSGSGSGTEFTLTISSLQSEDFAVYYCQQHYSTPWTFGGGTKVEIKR	0 (no)
Y12XX-hz32 (antibody, human IgG1, kappa, V domains shown, Humanized, IgG1-P238K; supernatant sample) VH: QVQLVQSGAEVKKPGSSVKVSCKASGYAFTSYWMHWVRQAPGQGLEWMGYINPTTGYSAYNQKFKDKATLTADKSTSTAYMELSSLRSEDTAVYYCARWDPRPFAYWGQGTLVTVSS VL: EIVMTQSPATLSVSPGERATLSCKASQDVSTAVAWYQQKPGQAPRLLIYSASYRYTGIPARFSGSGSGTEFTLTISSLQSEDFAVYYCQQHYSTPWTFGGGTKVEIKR	1 (yes)
Y12XX-hz15 (antibody, human IgG1, kappa, V domains shown, Humanized, IgG1-P238K; supernatant sample) VH: QVQLVQSGAEVKKPGSSVKVSCKASGYAFTSYWMHWVRQAPGQGLEWMGFINPTTGYSEYNQKFKDRVTITADKSTSTAYMELSSLRSEDTAVYYCARWGLPPFAYWGQGTLVTVSS VL: DIQMTQSPSFLSASVGDRVTITCKASQDVSTAVAWYQQKPGKAPKLLIYSASYRYTGVPSRFSGSGSGTDFTLTISSLQPEDFATYYCQQHYSTPWTFGGGTKVEIKR	0 (no)

Now take the following binder into account.
Prompt line: Say whether Y12XX-hz19 (antibody, human IgG1, kappa, V domains shown, Humanized, IgG1-P238K; supernatant sample) VH: QVQLVQSGAEVKKPGSSVKVSCKASGYAFTSYWMHWVRQRPGQGLEWMGYINPTTGYSAYNQKFKDKATLTADKSTSTAYMELSSLRSEDTAVYYCARWDPRPFAYWGQGTLVTVSS VL: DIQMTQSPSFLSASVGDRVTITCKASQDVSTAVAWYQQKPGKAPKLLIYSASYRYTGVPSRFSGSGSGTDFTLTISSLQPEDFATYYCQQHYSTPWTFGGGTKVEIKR shows koff of 0.002 s⁻¹ or more.
Response line: 1 (yes)
